target: HIV-1 pseudovirus SC05.8C11.2344 (HIV-1); assay: cell-based or functional assay
A collection of binders and their measured IC50 (neutralization in TZM.bl cells)

binder	IC50 (neutralization in TZM.bl cells) [µg/mL]
MS-88 (antibody, V domains shown) VH: QVQLVQSGPEVRKPGTSVKVSCKASGYTFKTYDLHWVRSVPGQGLQWMGWISHEGDKKVIVERFKAKVTITRDRSTNTAYLQLSGLTSGDTAVYYCAKGSKHRLRDYALYDDDGALNWAVDVDYLSNLEFWGQGTAVTVSS VL: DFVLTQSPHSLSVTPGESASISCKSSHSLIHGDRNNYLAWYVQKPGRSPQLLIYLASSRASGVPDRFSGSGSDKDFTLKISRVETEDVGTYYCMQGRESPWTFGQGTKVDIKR	1.54
MS-91 (antibody, V domains shown) VH: QVQLVQSGPEVRKPGTSVKVSCKASGYTLKTYDLHWVRSVPGQGLQWMGWISHEGDKKVIVERFKAKVTIDWDRSTNTAYLQLSGLTSGDTAVYYCAKGSKHRLRDYALYDDDGALNWAVDVDYLSNLEFWGQGTAVTVSS VL: DFVLTQSPLSLSVTPGESASISCKSSHSLIHGDRNNYLAWYVQKPGRSPQLLIYLASSRASGVPDRFSGSGSDTDFTLKISRVETEDVGTYYCMQGRESPWTFGQGTKVDIKR	0.848
MS-76 (antibody, V domains shown) VH: QVQLVQSGPEVRKPGTSVKVSCKAPGYTLKTYDLHWVRSVPGQGLQWMGWISHEGDKKVIVERFKAKVTIDWDRSTNTAYLQLSGLTSGDTAVYYCAKGSKHRLRDYALYDDDGALNWAVDVDYLSNLEFWGQGTAVTVSS VL: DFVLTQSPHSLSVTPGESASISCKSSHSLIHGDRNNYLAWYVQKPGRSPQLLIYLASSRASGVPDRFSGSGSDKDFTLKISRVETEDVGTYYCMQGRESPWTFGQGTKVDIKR	0.587
MS-70 (antibody, V domains shown) VH: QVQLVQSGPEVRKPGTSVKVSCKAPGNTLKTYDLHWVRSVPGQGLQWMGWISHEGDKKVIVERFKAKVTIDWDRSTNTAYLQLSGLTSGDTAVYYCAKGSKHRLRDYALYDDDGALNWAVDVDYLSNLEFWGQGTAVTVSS VL: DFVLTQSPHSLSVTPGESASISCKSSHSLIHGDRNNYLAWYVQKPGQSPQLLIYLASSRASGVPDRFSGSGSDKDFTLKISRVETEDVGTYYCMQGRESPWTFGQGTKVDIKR	0.508
MS-85 (antibody, V domains shown) VH: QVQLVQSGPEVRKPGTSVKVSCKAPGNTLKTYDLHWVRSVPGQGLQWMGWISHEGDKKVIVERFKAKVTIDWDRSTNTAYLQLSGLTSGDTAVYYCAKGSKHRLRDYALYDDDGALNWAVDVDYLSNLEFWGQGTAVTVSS VL: DIVLTQSPHSLSVTPGESASISCKSSHSLIHGDRNNYLAWYVQKPGRSPQLLIYLASSRASGVPDRFSGSGSGTDFTLKISRVETEDVGTYYCMQGRESPWTFGQGTKVDIKR	0.425

This collection of values is drawn from patent US20220025021A1.
